# assayedTarget: human ether-à-go-go-related gene (hERG) potassium channel (human, UniProt Q12809);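 note: peak tail current of the secondary pulse compared with the same well before compound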
# Sequence (Q12809 whole entry, looked up): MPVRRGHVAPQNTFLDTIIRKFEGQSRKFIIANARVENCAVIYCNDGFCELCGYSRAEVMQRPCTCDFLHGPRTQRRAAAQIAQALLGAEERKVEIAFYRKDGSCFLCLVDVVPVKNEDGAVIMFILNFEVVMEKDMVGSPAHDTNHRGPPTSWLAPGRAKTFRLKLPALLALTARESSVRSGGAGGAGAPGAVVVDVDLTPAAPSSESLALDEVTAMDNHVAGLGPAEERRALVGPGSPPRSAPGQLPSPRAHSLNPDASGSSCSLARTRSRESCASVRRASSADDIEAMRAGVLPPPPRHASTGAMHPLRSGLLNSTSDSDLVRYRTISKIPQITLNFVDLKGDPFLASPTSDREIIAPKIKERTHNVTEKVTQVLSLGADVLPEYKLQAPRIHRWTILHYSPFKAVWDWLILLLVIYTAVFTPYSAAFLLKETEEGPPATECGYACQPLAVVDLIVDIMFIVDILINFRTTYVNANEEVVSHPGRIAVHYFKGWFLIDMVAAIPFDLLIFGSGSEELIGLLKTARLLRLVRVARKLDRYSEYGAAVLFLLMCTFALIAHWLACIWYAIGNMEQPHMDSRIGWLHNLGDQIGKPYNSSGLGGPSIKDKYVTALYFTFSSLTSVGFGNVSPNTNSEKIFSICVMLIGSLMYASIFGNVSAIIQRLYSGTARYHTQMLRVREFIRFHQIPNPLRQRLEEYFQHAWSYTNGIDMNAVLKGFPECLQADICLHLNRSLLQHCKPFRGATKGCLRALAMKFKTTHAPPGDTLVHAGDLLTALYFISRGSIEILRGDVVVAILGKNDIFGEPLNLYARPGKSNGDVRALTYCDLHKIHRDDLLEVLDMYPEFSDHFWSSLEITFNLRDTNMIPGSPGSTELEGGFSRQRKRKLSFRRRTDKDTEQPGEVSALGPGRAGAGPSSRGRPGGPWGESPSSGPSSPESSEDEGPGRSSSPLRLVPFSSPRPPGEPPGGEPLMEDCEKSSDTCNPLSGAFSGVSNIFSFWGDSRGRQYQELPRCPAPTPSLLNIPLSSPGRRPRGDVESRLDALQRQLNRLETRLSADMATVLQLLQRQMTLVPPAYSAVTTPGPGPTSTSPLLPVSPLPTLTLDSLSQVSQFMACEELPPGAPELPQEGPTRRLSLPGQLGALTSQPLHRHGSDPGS
# protocolDetails: primary screen, population patch clamp on CHO cells stably expressing hERG; higher = less effect of the substance
The whole screen tested about 310,000 compounds, of which about 14,000 (4.5%) showed an effect of 50% or more. Effects have a minus sign here. The full list was thinned out, with strong results kept by preference.
parameter: hERG current change (%, negative = inhibition) at 10uM (%)

[
  {
    "molecule": "CS(=O)(=O)c1nc(S(=O)(=O)c2ccc(Cl)cc2)c(N2CCC(O)CC2)s1",
    "numericValue": -13.9
  },
  {
    "molecule": "CCOc1nc(Nc2ccccc2)nc(OCC)n1",
    "numericValue": -21.7
  },
  {
    "molecule": "CCc1cccc(C)c1NC(=O)C1CCCN1C(=O)NCc1ccccc1 (stereo not drawn)",
    "numericValue": 18.4
  },
  {
    "molecule": "Cc1ccc(S(=O)(=O)c2nc(S(C)(=O)=O)sc2N2CCC(C(N)=O)CC2)cc1",
    "numericValue": 7.6
  },
  {
    "molecule": "COC(=O)c1cccc(Nc2cc(C)nc(-c3ccccc3O)n2)c1",
    "numericValue": 10.2
  },
  {
    "molecule": "Cc1ccc(NS(=O)(=O)c2cccc(C(=O)NCC(c3cccs3)N3CCOCC3)c2)cc1 (stereo not drawn)",
    "numericValue": -14.3
  },
  {
    "molecule": "CCS(=O)(=O)c1nc(S(=O)(=O)c2ccc(Cl)cc2)c(N2CCCC2)s1",
    "numericValue": 10.5
  },
  {
    "molecule": "Cc1c(Cl)c([N+](=O)[O-])nn1Cc1ccc(C(=O)N/N=C\\c2cccc(Br)c2)o1",
    "numericValue": -38.7
  },
  {
    "molecule": "Cc1c(Cl)c([N+](=O)[O-])nn1Cc1ccc(C(=O)N/N=C\\c2cc(Cl)ccc2O)o1",
    "numericValue": 14.9
  }
]

----------
This section presents compounds with their documented hERG current change (%, negative = inhibition) at 10uM values.
# assayedTarget: human ether-à-go-go-related gene (hERG) potassium channel (human);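 note: peak tail current of the secondary pulse compared with the same well before compound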
# protocolDetails: primary screen, population patch clamp on CHO cells stably expressing hERG; higher = less effect of the substance
In all, about 310,000 compounds went through this assay and about 14,000 (4.5%) showed an effect of 50% or more. Effects have a minus sign here. This excerpt belongs to a sample that is enriched for strong results.
parameter: hERG current change (%, negative = inhibition) at 10uM

[
  {
    "compound": "NC(=O)c1oc2ccccc2c1NC(=O)c1ccc(F)cc1",
    "assayedTarget": "human ether-à-go-go-related gene (hERG) potassium channel (human)",
    "result": "10.9%"
  },
  {
    "compound": "COc1cccc(CSc2nc3nc(C)cc(C)n3n2)c1",
    "assayedTarget": "human ether-à-go-go-related gene (hERG) potassium channel (human)",
    "result": "-4.72%"
  },
  {
    "compound": "CCOCC(=O)Nc1c(C(=O)N2CCN(c3ncccn3)CC2)oc2ccccc12",
    "assayedTarget": "human ether-à-go-go-related gene (hERG) potassium channel (human)",
    "result": "-21.4%"
  },
  {
    "compound": "O=C(N/C=N/O)C(c1ccccc1)c1ncc(C(F)(F)F)cc1Cl (centres unmarked)",
    "assayedTarget": "human ether-à-go-go-related gene (hERG) potassium channel (human)",
    "result": "3.35%"
  },
  {
    "compound": "CCOCCCN(C)C1CCN(C(=O)c2oc3ccccc3c2NC(=O)COc2ccc(F)cc2)CC1",
    "assayedTarget": "human ether-à-go-go-related gene (hERG) potassium channel (human)",
    "result": "-80.1%"
  },
  {
    "compound": "Cc1cccc(CSc2nc3nc(C)cc(C)n3n2)c1",
    "assayedTarget": "human ether-à-go-go-related gene (hERG) potassium channel (human)",
    "result": "-27.9%"
  },
  {
    "compound": "O=[N+]([O-])c1cccc(S(=O)(=O)c2ccc(NCCOCCO)c([N+](=O)[O-])c2)c1",
    "assayedTarget": "human ether-à-go-go-related gene (hERG) potassium channel (human)",
    "result": "-38.3%"
  },
  {
    "compound": "COc1cccc(CSc2nnc(CSc3nc4nc(C)cc(C)n4n3)s2)c1",
    "assayedTarget": "human ether-à-go-go-related gene (hERG) potassium channel (human)",
    "result": "-54.4%"
  },
  {
    "compound": "O=C(CNC(=O)Cc1ccccc1)N=Nc1c(O)[nH]c2ccc(Br)cc12",
    "assayedTarget": "human ether-à-go-go-related gene (hERG) potassium channel (human)",
    "result": "24.7%"
  },
  {
    "compound": "COCCCN(C)C1CCN(C(=O)Nc2ccc(F)cc2)CC1",
    "assayedTarget": "human ether-à-go-go-related gene (hERG) potassium channel (human)",
    "result": "-28.8%"
  },
  {
    "compound": "Cc1cc(C)n2nc(SCc3nnc(SCc4ccccc4C)s3)nc2n1",
    "assayedTarget": "human ether-à-go-go-related gene (hERG) potassium channel (human)",
    "result": "-64.9%"
  },
  {
    "compound": "CCOc1ccccc1NC(=O)C(NCCN(C)C)c1ccccc1.O=C(O)C(=O)O (centres unmarked)",
    "assayedTarget": "human ether-à-go-go-related gene (hERG) potassium channel (human)",
    "result": "-76.4%"
  },
  {
    "compound": "CCOc1ccccc1NC(=O)C(Sc1ccccc1)c1ccccc1 (centres unmarked)",
    "assayedTarget": "human ether-à-go-go-related gene (hERG) potassium channel (human)",
    "result": "9.32%"
  },
  {
    "compound": "CCOc1ccccc1NC(=O)C(NCCc1ccc(OC)cc1)c1ccccc1 (centres unmarked)",
    "assayedTarget": "human ether-à-go-go-related gene (hERG) potassium channel (human)",
    "result": "-4.48%"
  },
  {
    "compound": "Cc1cc(C)n2nc(SCc3nnc(SCc4ccccc4)s3)nc2n1",
    "assayedTarget": "human ether-à-go-go-related gene (hERG) potassium channel (human)",
    "result": "-28.6%"
  },
  {
    "compound": "COc1ccc(CC(=O)Nc2c(C(=O)N3CCN(c4ccccc4OC)CC3)oc3ccccc23)cc1OC",
    "assayedTarget": "human ether-à-go-go-related gene (hERG) potassium channel (human)",
    "result": "-24.4%"
  },
  {
    "compound": "CCOc1ccccc1NC(=O)C(NCC1CCCCC1)c1ccccc1 (centres unmarked)",
    "assayedTarget": "human ether-à-go-go-related gene (hERG) potassium channel (human)",
    "result": "16.9%"
  },
  {
    "compound": "CCOCC(=O)Nc1c(C(=O)OCC)oc2ccccc12",
    "assayedTarget": "human ether-à-go-go-related gene (hERG) potassium channel (human)",
    "result": "-11.1%"
  },
  {
    "compound": "Cc1cc(C)n2nc(SCc3nnc(SCc4ccccc4Cl)s3)nc2n1",
    "assayedTarget": "human ether-à-go-go-related gene (hERG) potassium channel (human)",
    "result": "9.19%"
  },
  {
    "compound": "CCOc1ccccc1NC(=O)C(OC(=O)C1CC1)c1ccccc1 (centres unmarked)",
    "assayedTarget": "human ether-à-go-go-related gene (hERG) potassium channel (human)",
    "result": "-10.3%"
  }
]
